- System: NCI-H522
- protocol: NCI 60 cell line screen
- Format: cell-based
- applied.conditions: NCI-H522, Non-Small Cell Lung Cancer; single concentration 10^−5 M
# if measured Growth % < 90%: 1 (yes)  # else: 0 (no)

# smiles.data, assay.system, label.class
rows = [
    ("N#Cc1c(-c2ccc([N+](=O)[O-])cc2)cc(-c2c[nH]c3ccccc23)nc1-c1c[nH]c2ccccc12", "NCI-H522", "0 (no)"),
    ("N#Cc1c(-c2ccc(Br)cc2)cc(-c2c[nH]c3ccccc23)nc1-c1c[nH]c2ccccc12", "NCI-H522", "0 (no)"),
    ("COc1ccc(-c2cc(-c3c[nH]c4ccccc34)nc(-c3c[nH]c4ccccc34)c2C#N)cc1", "NCI-H522", "0 (no)"),
    ("N#Cc1c(-c2ccc(F)cc2)cc(-c2c[nH]c3ccccc23)nc1-c1c[nH]c2ccccc12", "NCI-H522", "0 (no)"),
    ("N#Cc1c(-c2ccc(O)cc2)cc(-c2c[nH]c3ccccc23)nc1-c1c[nH]c2ccccc12", "NCI-H522", "1 (yes)"),
]
